Property: EC50; scope: individual molecules
- Target Entity: F508delCFTR (Homo sapiens, UniProt P13569, DEL508-508)
- Construct: expressed in transfected cells; host or cells: CFBE41o- human lung-derived epithelial cells (CFBE4lo-F508delCFTR-HRP), doxycycline-inducible
- Sequence (P13569 with tags, fused parts or gaps DEL508-508): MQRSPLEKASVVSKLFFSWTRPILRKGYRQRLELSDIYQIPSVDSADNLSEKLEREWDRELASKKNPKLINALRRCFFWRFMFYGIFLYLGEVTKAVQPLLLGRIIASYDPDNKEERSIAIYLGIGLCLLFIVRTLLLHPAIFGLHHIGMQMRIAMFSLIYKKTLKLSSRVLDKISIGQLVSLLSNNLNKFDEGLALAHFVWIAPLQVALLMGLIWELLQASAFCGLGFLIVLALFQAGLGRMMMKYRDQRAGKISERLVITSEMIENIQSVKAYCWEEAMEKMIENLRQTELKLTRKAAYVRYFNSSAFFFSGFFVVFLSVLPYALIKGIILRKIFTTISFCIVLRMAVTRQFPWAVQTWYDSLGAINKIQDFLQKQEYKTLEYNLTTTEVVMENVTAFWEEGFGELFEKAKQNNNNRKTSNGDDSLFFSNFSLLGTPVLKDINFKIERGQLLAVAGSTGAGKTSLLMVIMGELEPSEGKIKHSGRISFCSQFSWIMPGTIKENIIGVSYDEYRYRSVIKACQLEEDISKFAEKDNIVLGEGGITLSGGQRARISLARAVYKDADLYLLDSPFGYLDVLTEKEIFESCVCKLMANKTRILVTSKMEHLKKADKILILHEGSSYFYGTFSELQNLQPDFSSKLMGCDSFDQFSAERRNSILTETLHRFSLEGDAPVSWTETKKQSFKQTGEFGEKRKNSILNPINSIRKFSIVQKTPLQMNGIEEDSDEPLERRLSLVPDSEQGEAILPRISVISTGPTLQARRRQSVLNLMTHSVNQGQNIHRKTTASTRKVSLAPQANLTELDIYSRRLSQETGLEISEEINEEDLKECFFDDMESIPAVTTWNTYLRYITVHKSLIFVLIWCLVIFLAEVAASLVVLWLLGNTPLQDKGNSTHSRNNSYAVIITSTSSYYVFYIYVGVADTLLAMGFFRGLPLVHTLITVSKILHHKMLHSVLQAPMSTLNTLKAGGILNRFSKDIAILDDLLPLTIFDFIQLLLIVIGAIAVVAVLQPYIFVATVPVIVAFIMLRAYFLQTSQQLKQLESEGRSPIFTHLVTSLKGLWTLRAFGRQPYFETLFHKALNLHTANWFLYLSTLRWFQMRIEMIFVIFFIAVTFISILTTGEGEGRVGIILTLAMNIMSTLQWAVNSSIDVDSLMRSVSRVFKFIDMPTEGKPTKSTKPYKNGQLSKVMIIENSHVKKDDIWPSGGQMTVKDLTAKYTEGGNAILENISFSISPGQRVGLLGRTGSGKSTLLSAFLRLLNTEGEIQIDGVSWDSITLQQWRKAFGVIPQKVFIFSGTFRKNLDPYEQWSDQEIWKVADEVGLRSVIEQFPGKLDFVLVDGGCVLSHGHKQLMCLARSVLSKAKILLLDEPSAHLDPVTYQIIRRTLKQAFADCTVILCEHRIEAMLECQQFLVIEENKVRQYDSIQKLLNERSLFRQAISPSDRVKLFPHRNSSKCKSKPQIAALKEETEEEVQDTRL
- Assay Comment: Cell Surface Expression-Horse Radish Peroxidase (CSE-HRP) Assay
- Assay type: cell-based
- Measurement Setup: with co-corrector (2 μM of 3-[(2R,4R)-4-({[1-(2,2-difluoro-1,3-benzodioxol-5-yl)cyclopropyl]carbonyl}amino)-7-methoxy-3,4-dihydro-2H-chromen-2-yl]benzoic acid); read-out: EC50 (with co-corrector)

Worked examples, 6 molecules total:
COc1ncc(CC2CCCCC2)cc1CN[C@H]1[C@H](C(C)(C)C)[C@@H](C(=O)O)N(C(=O)C2CCCCC2)[C@H]1c1ccccc1	< 1000 nM
Cc1cc(C(F)(F)F)cc(N[C@H]2[C@H](C(C)(C)C)[C@@H](C(=O)O)N(C(=O)C3CCCCC3)[C@H]2c2ccccc2)n1	1000 to 10000 nM
COc1cnc(C2CC3CCC2C3)cc1CN[C@H]1[C@H](C(C)(C)C)[C@@H](C(=O)O)N(C(=O)C2CCCCC2)[C@H]1c1ccccc1 (stereo partly shown)	1000 to 10000 nM
COc1ncc(-c2ccccc2F)cc1CN[C@H]1[C@H](C(C)(C)C)[C@@H](C(=O)O)N(C(=O)C2CCCCC2)[C@H]1c1ccccc1F	< 1000 nM
COc1nc(C(C)(C)C)ccc1CN[C@H]1[C@H](C(C)(C)C)[C@@H](C(=O)O)N(C(=O)Cc2ccccc2C)[C@H]1c1ccccc1	< 1000 nM
COc1ccc(-c2ccccc2)cc1CN[C@H]1[C@H](C(C)(C)OC)[C@@H](C(=O)O)N(C(=O)C2CCCCC2)[C@H]1c1ccccc1	< 1000 nM

Entry `COc1ccc(Cl)cc1CN[C@H]1[C@H](C(C)(C)C)[C@@H](C(=O)O)N(C(=O)OC(C)C)[C@H]1c1ccccc1C(C)C` needs its EC50 filled in; supply it.
1000 to 10000 nM

Entry COc1ncc(C(F)(F)F)cc1CN[C@H]1[C@H](C(C)(C)C)[C@@H](C(=O)O)N(C(=O)C2CC(C)CC(C)C2)[C@H]1c1ccccc1 (stereo partly shown) needs its EC50 filled in; supply it.
< 1000 nM

Entry `CC(C)OC(=O)N1[C@H](C(=O)O)[C@@H](C(C)(C)C)[C@H](NCC2CCN(C(C)C)CC2)[C@@H]1c1ccccc1` needs its EC50 filled in; supply it.
< 1000 nM

Entry `COc1ccc(C(C)(C)C)cc1CN[C@H]1[C@H](C(C)(C)C)[C@@H](C(=O)O)N(C(=O)OC2CCCC2)[C@H]1c1ccccc1` needs its EC50 filled in; supply it.
< 1000 nM

Entry `COc1ncc(C2=CCOC2)cc1CN[C@H]1[C@H](C(C)(C)C)[C@@H](C(=O)O)N(C(=O)C2CCCCC2)[C@H]1c1ccccc1` needs its EC50 filled in; supply it.
1000 to 10000 nM

Entry `Cc1cc(C(F)(F)F)cc(N[C@H]2[C@H](C(C)(C)C)[C@@H](C(=O)O)N(C(=O)OC(C)C)[C@H]2c2ccccc2C(C)C)n1` needs its EC50 filled in; supply it.
1000 to 10000 nM

Entry `COc1ncc(C(F)(F)F)cc1CN[C@H]1[C@H](C(C)(C)C)[C@@H](C(=O)O)N(C(=O)C2CCOCC2)[C@H]1c1ccccc1C(C)C` needs its EC50 filled in; supply it.
< 1000 nM
